System: Escherichia coli
Assay: Antibacterial activity against Escherichia coli ATCC 25922 incubated for 16 to 18 hrs by CLSI based broth dilution method
Type: functional
Details: time 16-18 hrs
Known log10 MIC of a selection of molecules
Quick note: numbers are log10 of MIC, with µg/mL as the unit.

[[record]]
smiles_entry = "Nc1nc(N)c2c(ccc3c2ccn3Cc2ccc(Br)c3ccccc23)n1"
target_system = "Escherichia coli"
endpoint_label = "log10 MIC"
number = 0.00

[[record]]
smiles_entry = "Nc1nc(N)c2c(ccc3c2ccn3Cc2ccc3nc(N)sc3c2)n1"
target_system = "Escherichia coli"
endpoint_label = "log10 MIC"
number = 0.60

[[record]]
smiles_entry = "Nc1nc(N)c2c(ccc3c2ccn3Cc2ccc3ccccc3c2)n1"
target_system = "Escherichia coli"
endpoint_label = "log10 MIC"
number = -0.30

[[record]]
smiles_entry = "Nc1nc(N)c2c(ccc3c2ccn3Cc2ccc3ncsc3c2)n1"
target_system = "Escherichia coli"
endpoint_label = "log10 MIC"
number = -0.60


Query: Item "Nc1nc(N)c2c(ccc3c2ccn3Cc2nc3ccccc3s2)n1" has what recorded log10 MIC?
Response: -1.52

Query: And "Nc1nc(N)c2c(ccc3c2ccn3Cc2cccc3sc(N)nc23)n1" ?
Response: -0.30

Query: And "COc1cc(Cc2cnc(N)nc2N)cc(OC)c1OC" ?
Response: -0.30

Query: And "Nc1nc(N)c2c(ccc3c2ccn3Cc2cccc3scnc23)n1" ?
Response: -1.52

Query: And "Nc1nc(N)c2c(ccc3c2ccn3Cc2ccc(B(O)O)c3ccccc23)n1" ?
Response: 0.00

* * *

Tested on: Escherichia coli
Assay: Antibacterial activity against Escherichia coli ATCC 25922 incubated for 16 to 18 hrs by CLSI based broth dilution method
Type: functional
Settings: time 16-18 hrs
Endpoint Label: MIC

[[record]]
smiles_entry = "Cc1cc2c3c(N)nc(N)nc3ccc2n1Cc1cccc2scnc12"
result = "> 8 mg/L"


Query: Item "Nc1nc(N)c2c(ccc3c2ccn3Cc2nc3ccc(C(=O)O)cc3s2)n1" has what recorded MIC?
Response: > 8 mg/L

Query: And "Nc1nc(N)c2c(ccc3c2ccn3Cc2ccc3cc(C(=O)O)ccc3n2)n1" ?
Response: > 128 mg/L
